Molecular target: HLA-B*27:05
Experiment: IEDB peptide-MHC binding, purified MHC/competitive/fluorescence; filed as Kd, often an IC50 or EC50 that approximates it; bounds were set here for any values at or beyond the usual limits of such assays
Details: source organism: Acinetobacter baumannii
pKd: −log10 of the molar value.
Property Measured: pKd

Input: Would you mind telling me what pKd value was observed for SIYAGNTPK ?
Output: ≤ 4.70

---

Biological target: HLA-B*40:13
Assay: IEDB peptide-MHC binding, purified MHC/competitive/fluorescence; filed as Kd, often an IC50 or EC50 that approximates it; bounds were set here for any values at or beyond the usual limits of such assays
Details: source organism: Yersinia pestis CO92
Property Measured: Kd

Input: Would you mind telling me what Kd value was observed for YSFSRAYTL ?
Output: 6.3 nM

---

Biological target: HLA-A*02:01
Assay: IEDB peptide-MHC binding, purified MHC/direct/fluorescence; filed as Kd, often an IC50 or EC50 that approximates it; bounds were set here for any values at or beyond the usual limits of such assays
Details: source organism: Salmonella enterica subsp. enterica serovar Typhi
pKd: −log10 of the molar value.
Property Measured: pKd

Input: Would you mind telling me what pKd value was observed for PSEDEQQGH ?
Output: ≤ 4.70

---

Molecular target: HLA-B*45:01
Test: IEDB peptide-MHC binding, purified MHC/competitive/radioactivity; filed as Kd, often an IC50 or EC50 that approximates it; bounds were set here for any values at or beyond the usual limits of such assays
Conditions: source organism: Mammarenavirus machupoense
Property Measured: pKd
Value format note: pKd is -log10 of concentration (mol/L); just state the number.

Input: Would you mind telling me what pKd value was observed for KDMPGGYCL ?
Output: 4.74

---

Target: HLA-B*39:01
Experiment: IEDB peptide-MHC binding, purified MHC/competitive/fluorescence; filed as Kd, often an IC50 or EC50 that approximates it; bounds were set here for any values at or beyond the usual limits of such assays
Conditions: source organism: Yersinia pestis CO92
Property Measured: pKd
Value format note: pKd is -log10 of concentration (mol/L); just state the number.

Input: Would you mind telling me what pKd value was observed for YSFSRAYTL ?
Output: 8.41

---

Molecular target: HLA-B*45:01
Test: IEDB peptide-MHC binding, purified MHC/competitive/radioactivity; filed as Kd, often an IC50 or EC50 that approximates it; bounds were set here for any values at or beyond the usual limits of such assays
Details: source organism: SARS coronavirus Tor2
Property Measured: Kd (µM)
I only need the number, in µM, no unit after it.

Input: Would you mind telling me what Kd value was observed for EEAIRHVRAW ?
Output: 4.77

Input: Record: TEGLCVDIPG
Output: 0.0748

---

Biological target: HLA-A*29:02
Assay: IEDB peptide-MHC binding, purified MHC/direct/fluorescence; filed as Kd, often an IC50 or EC50 that approximates it; bounds were set here for any values at or beyond the usual limits of such assays
Conditions: source organism: Francisella tularensis subsp. tularensis FSC033
Property Measured: Kd

Input: Requested read-out Kd, target or system HLA-A*29:02, entry ETLDVFGPI
Output: ≥ 20 µM

---

Target: HLA-B*58:01
Experiment: IEDB peptide-MHC binding, purified MHC/direct/fluorescence; filed as Kd, often an IC50 or EC50 that approximates it; bounds were set here for any values at or beyond the usual limits of such assays
Settings: source organism: Coxiella burnetii
pKd: −log10 of the molar value.
Property Measured: pKd

Input: Would you mind telling me what pKd value was observed for YMHGSIHEV ?
Output: ≤ 4.70
